Each recorded value in this set is attributed to patent US10975056B2.

# tgt: DNMT1 (Homo sapiens)
# Sequence (P26358 whole entry, looked up): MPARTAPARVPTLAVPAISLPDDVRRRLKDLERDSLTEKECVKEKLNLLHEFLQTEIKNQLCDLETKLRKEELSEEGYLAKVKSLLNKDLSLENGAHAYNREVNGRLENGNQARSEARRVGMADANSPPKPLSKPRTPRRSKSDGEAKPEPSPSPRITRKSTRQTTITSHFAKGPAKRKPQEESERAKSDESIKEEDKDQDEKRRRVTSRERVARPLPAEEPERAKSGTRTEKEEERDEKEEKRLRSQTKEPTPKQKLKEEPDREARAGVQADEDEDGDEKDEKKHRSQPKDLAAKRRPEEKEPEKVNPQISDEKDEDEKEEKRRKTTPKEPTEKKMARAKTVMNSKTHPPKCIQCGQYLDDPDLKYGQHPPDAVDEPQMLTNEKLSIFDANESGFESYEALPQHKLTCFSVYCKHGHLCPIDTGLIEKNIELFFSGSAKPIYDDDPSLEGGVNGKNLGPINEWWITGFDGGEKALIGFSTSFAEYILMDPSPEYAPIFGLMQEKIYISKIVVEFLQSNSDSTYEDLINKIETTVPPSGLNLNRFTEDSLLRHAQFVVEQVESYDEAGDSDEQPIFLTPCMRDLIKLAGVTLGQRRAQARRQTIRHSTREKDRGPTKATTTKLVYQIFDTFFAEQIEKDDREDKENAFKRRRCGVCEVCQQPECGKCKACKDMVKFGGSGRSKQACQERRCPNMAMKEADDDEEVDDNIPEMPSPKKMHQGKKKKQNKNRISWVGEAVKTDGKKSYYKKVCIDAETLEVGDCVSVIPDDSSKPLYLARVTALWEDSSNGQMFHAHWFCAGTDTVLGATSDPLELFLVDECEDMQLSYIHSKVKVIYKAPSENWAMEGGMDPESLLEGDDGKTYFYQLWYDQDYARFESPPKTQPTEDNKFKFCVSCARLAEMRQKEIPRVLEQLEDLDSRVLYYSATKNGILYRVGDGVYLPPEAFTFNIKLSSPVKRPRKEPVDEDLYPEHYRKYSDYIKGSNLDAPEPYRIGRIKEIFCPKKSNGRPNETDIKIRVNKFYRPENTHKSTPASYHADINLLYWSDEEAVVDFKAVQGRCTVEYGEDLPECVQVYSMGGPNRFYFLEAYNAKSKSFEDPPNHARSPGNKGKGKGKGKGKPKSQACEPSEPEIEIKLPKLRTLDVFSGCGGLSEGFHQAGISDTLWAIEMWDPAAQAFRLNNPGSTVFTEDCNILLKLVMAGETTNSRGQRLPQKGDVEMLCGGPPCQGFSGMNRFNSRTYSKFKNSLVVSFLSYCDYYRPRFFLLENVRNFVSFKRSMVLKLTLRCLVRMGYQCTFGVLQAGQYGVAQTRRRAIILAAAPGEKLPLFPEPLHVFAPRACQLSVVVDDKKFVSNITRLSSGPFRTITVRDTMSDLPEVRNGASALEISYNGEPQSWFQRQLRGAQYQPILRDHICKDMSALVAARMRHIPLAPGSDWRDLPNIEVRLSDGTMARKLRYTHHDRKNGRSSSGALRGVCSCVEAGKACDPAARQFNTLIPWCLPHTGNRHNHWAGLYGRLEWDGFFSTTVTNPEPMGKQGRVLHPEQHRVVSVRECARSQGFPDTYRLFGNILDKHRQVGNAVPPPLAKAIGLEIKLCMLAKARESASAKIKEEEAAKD
# experiment-description: DNMT1 biochemical activity, breaklight assay and/or SPA assay
# condition-set: binned activity in either the breaklight or the SPA assay
property-name: DNMT1 BioChemical (pIC50 category)

Here's what some known entries look like.
CCc1c(C#N)c(SC(C(N)=O)c2ccccc2)nc(N2C[C@@H](C)N[C@@H](C)C2)c1C#N (stereo partly shown)    D (Category D: ≥6.5)
CN(C)C1CCCN(c2nc(SC(C(N)=O)c3ccccc3)c(C#N)c(C3CC3)c2C#N)C1 (stereo not shown)    D (Category D: ≥6.5)
CCc1c(C#N)c(SC(C(N)=O)c2ccccc2)nc(N2CCC(C)(N)CC2)c1C#N (stereo not shown)    D (Category D: ≥6.5)
CCc1c(C#N)c(SC(C(N)=O)c2ccccc2)nc(N(C)CC(=O)N2CCOCC2)c1C#N (stereo not shown)    D (Category D: ≥6.5)
CCc1c(C#N)c(S[C@@H](C(N)=O)c2ccccc2)nc(N2CC[C@](O)(CO)C2)c1C#N    D (Category D: ≥6.5)

Task: Query DNMT1 BioChemical (pIC50 category) for CCc1c(C#N)c(SC(C(N)=O)c2ccccc2)nc(N(C)CCN2CCCCCC2)c1C#N (stereo not shown)
Output: D (Category D: ≥6.5)

Task: Query DNMT1 BioChemical (pIC50 category) for COc1c(C#N)c(SC(C(N)=O)c2ccccc2)nc(N2CC[C@H](O)C2)c1C#N (stereo partly shown)
Output: D (Category D: ≥6.5)

Task: Query DNMT1 BioChemical (pIC50 category) for CCc1c(C#N)c(SC(C(N)=O)c2ccccc2)nc(N(C)CCNC)c1C#N (stereo not shown)
Output: D (Category D: ≥6.5)

* * *

# tgt: DNMT1 (Homo sapiens)
# experiment-description: DNMT1 biochemical activity, breaklight assay and/or SPA assay
# condition-set: binned activity in either the breaklight or the SPA assay; read-out: DNMT1 BioChemical (pIC50 category) (converted)
property-name: IC50

Here's what some known entries look like.
CCc1c(C#N)c(SC(C(N)=O)c2ccccc2)nc(N2CCCN(C)CC2)c1C#N (single isomer, unassigned; isomer 2) [Example 255]    1000 to 31600 nM
CCc1c(C#N)c(SC(C(N)=O)c2ccccc2)nc(N2CCN(CCCN(C)C)CC2)c1C#N (stereo not shown) [Example 120]    316 to 1000 nM
CCc1c(C#N)c(SC(C(N)=O)c2ccccc2)nc(N2CCCN3CCCC3C2)c1C#N (stereo not shown) [Example 117]    316 to 1000 nM
CCc1c(C#N)c(N[C@@H](C(N)=O)c2ccccc2)nc(N2CCCN(CCO)CC2)c1C#N [Example 114]    316 to 1000 nM
CCc1c(C#N)c(SCc2ccc(CNC(C)=O)cc2)nc(N2CCC(OCCOC(=O)[C@@H](N)C(C)C)CC2)c1C#N [Example 264]    1000 to 31600 nM

Task: Query IC50 for CCc1c(C#N)c(SC(C(N)=O)c2ncccc2F)nc(N2CCCN(C)CC2)c1C#N (stereo not shown) [Example 220]
Output: 316 to 1000 nM

Task: Query IC50 for CCc1c(C#N)c(SCc2cnn(CCO)c2)nc(N2CCC(N)CC2)c1C#N [Example 363]
Output: 316 to 1000 nM

Task: Query IC50 for CNc1c(C#N)c(SCc2ccc(CNC(C)=O)cc2)nc(N2CCCN(C)CC2)c1C#N [Example 91]
Output: 316 to 1000 nM
